tested on: SW-620 colon; experiment: NCI tumour cell line growth inhibition, 48 h
Each entry below carries its reported TGI.

>>> reported_value("O=C1O[C@H]2[C@@H]3OC(=O)c4cc(O)c(O)c(O)c4-c4c(cc(O)c(O)c4O)C(=O)OC[C@H]2O[C@@H](OC(=O)c2cc(O)c(O)c(O)c2)[C@@H]3OC(=O)c2cc(O)c(O)c3c2[C@@H]2C1=CC(=O)C(O)(O)C2(O)O3 (stereo not given in full)")
"38.5 µM"

I looked up CC(NC(=O)C(N)CC(=O)O)NC(=O)N1CCCC1 (stereo not given) and its TGI for SW-620 colon was > 100 µM

I looked up `O=C1C[C@H]2[C@H](c3ccc(Br)cc3)[C@H]3C(=O)c4ccccc4NC(=O)[C@@H]3[C@@]2(O)c2ccccc2N1` and its TGI for SW-620 colon was > 100 µM

I looked up O=C(O)C(F)(OC(F)(F)C(F)(OC(F)(F)C(F)(F)C(F)(F)F)C(F)(F)F)C(F)(F)F (stereo not given) and its TGI for SW-620 colon was > 100 µM

I looked up `O=C(Nc1ccc(Br)cc1F)c1cc(Br)ccc1O` and its TGI for SW-620 colon was 7.42 µM

I looked up `Oc1cc2c(cc1O)-c1[nH]ncc1CC2` and its TGI for SW-620 colon was > 100 µM

I looked up COc1cc(C2C(C#N)=C(N)Oc3cc(O)ccc32)cc(OC)c1OC (stereo not given) and its TGI for SW-620 colon was > 100 µM

I looked up `CCOC(=O)/C=C/c1ccccn1` and its TGI for SW-620 colon was > 100 µM

I looked up COC(=O)NN1C(C)=C(C(=O)OC)C2(CCOC2=O)C1(C)O (stereo not given) and its TGI for SW-620 colon was > 100 µM

----------
Each entry below carries its reported TGI.
test system: SF-268 CNS; experiment: NCI tumour cell line growth inhibition, 48 h

>>> reported_value("COC(=O)C1C2CCCN2OC1(C)CO (configuration not stated)")
"> 100 µM"
>>> reported_value("Cc1ccc(C)c(NC(=O)C(Cc2c[nH]c3ccccc23)NC(=O)OCc2ccccc2)c1 (configuration not stated)")
"> 100 µM"
>>> reported_value("Cc1cccc(NC(=S)N/N=C(/c2ccccc2)c2ccccn2)c1")
"12.6 µM"
>>> reported_value("CC1CCC23COC(=O)C2C(O)CCC3C1(C)CC(O)c1ccoc1 (configuration not stated)")
"> 100 µM"

So, `CCc1ccc(Nc2cc(C)nc3nc(C)nn23)cc1` ? Its TGI was > 100 µM

So, `Cc1nn(-c2ccc(Br)cc2)c(C)c1CC(=O)c1cc(O)ccc1O` ? Its TGI was 17.6 µM

So, `O=C(CSc1nnc(-c2ccc(N=Cc3ccc(Cl)cc3)cc2)o1)Nc1cccc(Cl)c1` ? Its TGI was > 100 µM

So, `ClC[Si]12OCCN(CCO1)CCO2` ? Its TGI was > 100 µM

So, `O=C1C[C@H]2[C@H](c3ccc(Br)cc3)[C@H]3C(=O)c4ccccc4NC(=O)[C@@H]3[C@@]2(O)c2ccccc2N1` ? Its TGI was > 100 µM

----------
system: ACHN renal; test: NCI tumour cell line growth inhibition, 48 h
Each entry below carries its reported TGI.

Solved entries:
>>> reported_value("C/C(=N\\NC(=O)c1ccncc1)c1ccc(O)cc1O")
"> 100 µM"
>>> reported_value("O=C(CN1CCN(c2ccc(Cl)cc2)CC1)N1CCN(c2nnc(-c3ccccc3)c(-c3ccccc3)n2)CC1")
"> 100 µM"
>>> reported_value("O=C(O)C(F)(OC(F)(F)C(F)(OC(F)(F)C(F)(F)C(F)(F)F)C(F)(F)F)C(F)(F)F (stereo not given)")
"> 100 µM"

So, COC(=O)C(Cc1nc2ccccc2[nH]c1=O)C(=O)C(=O)Nc1ccc(OC)cc1[N+](=O)[O-] (stereo not given) ? Its TGI was > 100 µM

So, N#CC1=C(c2ccccc2)C(O)(c2ccccc2)NC1=O (stereo not given) ? Its TGI was > 100 µM

So, `CCOC(=O)c1cc(-c2ccc(Cl)cc2)c([N+](=O)[O-])n1C` ? Its TGI was > 10 µM

So, COc1cc2c(cc1O)C(C)Cc1cc3c(cc1N(C)CC2)OCO3 (stereo not given) ? Its TGI was 74.1 µM

So, CCC/C(=N\NC(=O)c1cc2ccccc2cc1O)C(CC)C(=O)CCC(=O)N(Cc1ccccc1)Cc1ccccc1 (stereo not given) ? Its TGI was > 100 µM

So, `O=C(/C=C/c1cccnc1)c1ccccc1O` ? Its TGI was 37.6 µM

So, `Cn1c(=O)c2nc(N3CCCCC3)cnc2n(C)c1=O` ? Its TGI was > 100 µM
